- System: Streptococcus pneumoniae
- experiment.notes: Antibacterial activity against Streptococcus pneumoniae ATCC 6301
- Assay type: functional
recorded.endpoint: MIC (µg/mL)

{"columns": ["compound", "recorded.endpoint", "assay.result"],
 "data": [
  ["CC[C@H]1OC(=O)C[C@@H](O)[C@H](C)[C@@H](O[C@@H]2O[C@H](C)[C@@H](O)[C@H](N(C)C)[C@@H]2O)[C@@H](CCN2CC(C)CC(C)C2)C[C@@H](C)C(=N/OCCCc2ccc3ncccc3c2)/C=C/C(C)=C/C1CO (stereo not given in full)", "MIC", 6.25],
  ["CC[C@H]1OC(=O)C[C@@H](O)[C@H](C)[C@@H](O[C@@H]2O[C@H](C)[C@@H](O)[C@H](N(C)C)[C@@H]2O)[C@@H](CCN2CC(C)CC(C)C2)C[C@@H](C)C(=N/OCCCCc2ccc3ncccc3c2)/C=C/C(C)=C/C1CO (stereo not given in full)", "MIC", 1.56],
  ["CC[C@H]1OC(=O)C[C@@H](O)[C@H](C)[C@@H](O[C@@H]2O[C@H](C)[C@@H](O)[C@H](N(C)C)[C@H]2O)[C@@H](CC=O)C[C@@H](C)C(=N\\OCC#Cc2cnc3ccccc3c2)/C=C/C(C)=C/C1CO (stereo not given in full)", "MIC", 0.025],
  ["CC[C@H]1OC(=O)C[C@@H](O)[C@H](C)[C@@H](O[C@@H]2O[C@H](C)[C@@H](O)[C@H](N(C)C)[C@H]2O)[C@@H](CC=O)C[C@@H](C)C(=N\\OC/C=C/c2cnc3ccccc3c2)/C=C/C(C)=C/C1CO (stereo not given in full)", "MIC", 0.025],
  ["CC[C@H]1OC(=O)C[C@@H](O)[C@H](C)[C@@H](O[C@@H]2O[C@H](C)[C@@H](O)[C@H](N(C)C)[C@H]2O)[C@@H](CC=O)C[C@@H](C)C(=N/OCc2ccccc2)/C=C/C(C)=C/C1CO (stereo not given in full)", "MIC", 0.025]
]}

###

- Test system: Haemophilus influenzae
- experiment.notes: Antibacterial activity against Haemophilus influenzae EH001
- Type: functional

{"columns": ["compound", "MIC"],
 "data": [
  ["CC[C@H]1OC(=O)C[C@@H](O)[C@H](C)[C@@H](O[C@@H]2O[C@H](C)[C@@H](O)[C@H](N(C)C)[C@H]2O)[C@@H](C=O)C[C@@H](C)C(=N\\OCCCc2ccc3ncccc3c2)/C=C/C(C)=C/C1CO (stereo partly specified)", "3.12 µg/mL"]
]}

###

- System: Staphylococcus epidermidis
- experiment.notes: Antibacterial activity against Staphylococcus epidermidis ATCC 12228
- Format: functional
Here, each record is paired with measured MIC data.

{"columns": ["compound", "system.name", "value.unit", "result.operator", "MIC"],
 "data": [
  ["CC[C@H]1OC(=O)C[C@@H](O)[C@H](C)[C@@H](O[C@@H]2O[C@H](C)[C@@H](O)[C@H](N(C)C)[C@H]2O)[C@@H](CC=O)C[C@@H](C)C(=N/OCC(=O)N2CCN(c3ccccc3)CC2)/C=C/C(C)=C/C1CO (some centres undefined)", "Staphylococcus epidermidis", "µg/mL", "=", 0.2],
  ["CC[C@H]1OC(=O)C[C@@H](O)[C@H](C)[C@@H](O[C@@H]2O[C@H](C)[C@@H](O)[C@H](N(C)C)[C@H]2O)[C@@H](CC=O)C[C@@H](C)C(=O)/C=C/C(C)=C/C1CO (some centres undefined)", "Staphylococcus epidermidis", "µg/mL", "=", 0.39],
  ["CC[C@H]1OC(=O)C[C@@H](O)[C@H](C)[C@@H](O[C@@H]2O[C@H](C)[C@@H](O)[C@H](N(C)C)[C@@H]2O)[C@@H](CCN2CC(C)CC(C)C2)C[C@@H](C)C(=N\\OCCCc2ccc3ncccc3c2)/C=C/C(C)=C/C1CO (some centres undefined)", "Staphylococcus epidermidis", "µg/mL", ">", 12.5],
  ["CC[C@H]1OC(=O)[C@H](C)[C@@H](O[C@H]2C[C@@](C)(OC)[C@@H](O)[C@H](C)O2)[C@H](C)[C@@H](O[C@@H]2O[C@H](C)C[C@H](N(C)C)[C@H]2O)[C@](C)(O)C[C@@H](C)C(=O)[C@H](C)[C@@H](O)[C@]1(C)O", "Staphylococcus epidermidis", "µg/mL", "=", 0.2]
]}
